These data points were gathered from patent US20240360238A1.

# Target or system: CD117 on Kasumi-1 cells and primary human CD34+ bone marrow cells (human, UniProt P10721 26-976)
# Sequence (P10721 26-976): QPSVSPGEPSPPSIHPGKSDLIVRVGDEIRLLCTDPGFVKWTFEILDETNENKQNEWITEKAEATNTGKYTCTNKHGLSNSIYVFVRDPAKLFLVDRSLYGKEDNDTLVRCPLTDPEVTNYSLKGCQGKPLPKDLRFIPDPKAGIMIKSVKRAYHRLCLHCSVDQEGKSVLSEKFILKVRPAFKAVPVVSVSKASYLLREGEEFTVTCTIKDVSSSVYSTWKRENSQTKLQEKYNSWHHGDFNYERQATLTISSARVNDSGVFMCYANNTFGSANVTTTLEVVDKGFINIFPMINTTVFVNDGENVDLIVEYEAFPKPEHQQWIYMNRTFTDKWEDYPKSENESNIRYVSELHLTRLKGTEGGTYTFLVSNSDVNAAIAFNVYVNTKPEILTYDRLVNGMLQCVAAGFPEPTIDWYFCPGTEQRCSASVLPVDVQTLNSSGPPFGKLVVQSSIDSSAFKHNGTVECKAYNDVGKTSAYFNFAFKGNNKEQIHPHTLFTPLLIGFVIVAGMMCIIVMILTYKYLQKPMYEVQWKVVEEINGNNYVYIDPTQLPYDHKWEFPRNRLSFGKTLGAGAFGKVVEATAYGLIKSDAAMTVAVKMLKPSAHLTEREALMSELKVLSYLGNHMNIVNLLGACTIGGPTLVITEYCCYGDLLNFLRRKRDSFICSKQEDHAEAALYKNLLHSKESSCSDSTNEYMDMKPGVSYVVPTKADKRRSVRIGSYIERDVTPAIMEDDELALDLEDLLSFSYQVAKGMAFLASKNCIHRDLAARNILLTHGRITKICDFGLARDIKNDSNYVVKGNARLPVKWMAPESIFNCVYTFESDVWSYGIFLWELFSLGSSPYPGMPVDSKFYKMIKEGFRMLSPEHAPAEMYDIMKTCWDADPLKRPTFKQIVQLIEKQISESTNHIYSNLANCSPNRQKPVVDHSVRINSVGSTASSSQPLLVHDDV
# Experiment summary: cell-based or functional assay
This listing pairs binders with measured % efficacy, killing of primary human CD34+CD90+ cells.
# value in %; strip the unit string

Binder: HC-247/LC-247 anti-CD117-ADC (conjugated to an amatoxin) (antibody, V domains shown, antibody conjugated to an amatoxin; site not stated) VH: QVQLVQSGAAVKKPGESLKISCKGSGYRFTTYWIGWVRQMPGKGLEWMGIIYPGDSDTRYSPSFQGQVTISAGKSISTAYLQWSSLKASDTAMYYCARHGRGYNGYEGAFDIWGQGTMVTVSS VL: DIQMTQSPSSLSASVGDRVTITCRASRGISDYLAWYQQKPGKAPKLLIYDASNLETGVPSRFSGSGSGTDFTLTISSLQPEDFATYYCQQANSFPITFGQGTRLEIK
Units label: %
Test result: 55.4
//
Binder: HC-248/LC-248 anti-CD117-ADC (conjugated to an amatoxin) (antibody, V domains shown, antibody conjugated to an amatoxin; site not stated) VH: EVQLVQSGAEVKKPGESLKISCKGSGYRFTTSWIGWVRQMPGKGLEWMGIIYPGDSDTRYSPSFQGQVTISADKSISTAYLQWSSLKASDTAMYYCARHGLGYNGYEGAFDIWGQGTLVTVSS VL: DIQMTQSPSSLSASVGDRVTITCRASQGIGSALAWYQQKPGKAPKLLIYDASTLESGVPSRFSGSGSGTDFTLTISSLQPEDFATYYCQQLNGYPLTFGQGTRLEIK
Units label: %
Test result: 47.8
//
Binder: HC-77/LC-77 anti-CD117-ADC (conjugated to an amatoxin) (antibody, V domains shown, antibody conjugated to an amatoxin; site not stated) VH: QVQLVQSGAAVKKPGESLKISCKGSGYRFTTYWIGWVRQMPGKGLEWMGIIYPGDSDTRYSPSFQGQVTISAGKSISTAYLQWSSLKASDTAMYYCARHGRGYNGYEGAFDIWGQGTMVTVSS VL: DIQLTQSPSSLSASVGDRVTITCRASQGVISALAWYQQKPGKAPKLLIYDASILESGVPSRFSGSGSGTDFTLTISSLQPEDFATYYCQQFNSYPLTFGGGTKVEIK
Units label: %
Test result: 54.4

Ask | Quick one: give measured % efficacy, killing of primary human CD34+CD90+ cells for HC-85/LC-85 ADC (Ab85 conjugated to an amatoxin) (antibody, V domains shown, antibody conjugated to an amatoxin; site not stated) VH: EVQLVQSGAEVKKPGESLKISCKGSGYSFTNYWIGWVRQMPGKGLEWMAIINPRDSDTRYRPSFQGQVTISADKSISTAYLQWSSLKASDTAMYYCARHGRGYEGYEGAFDIWGQGTLVTVSS VL: DIQMTQSPSSLSASVGDRVTITCRSSQGIRSDLGWYQQKPGKAPKLLIYDASNLETGVPSRFSGSGSGTDFTLTISSLQPEDFATYYCQQANGFPLTFGGGTKVEIK
Reply | 71.2
